Tested on: HepG2
assay_remarks: GSK_TCMDC: Percent inhibition of human HepG2 cell line. Test compounds present at 10uM.
Assay type: functional
reported_metric: Inhibition (%)
Give the number; % is assumed, so skip it.

Some solved entries appear below for comparison.
Br.CCOC(=O)c1ccc(CC(C)NCC(O)c2cccc(C(F)(F)F)c2)cc1 (configuration not stated) : 5
Cc1cc(-c2ncc[nH]2)ccc1-c1ccc(C(=O)N2CCc3cc4c(cc32)C2(CCN(C)CC2)CO4)cc1.Cl : 32
Cc1[nH]c2ccccc2c1C1=CCN(CCCCCC23CCCc4cccc(c42)NC3=O)CC1 (configuration not stated) : 11

Query molecule follows.
Can you share its Inhibition? I mean this molecule: `CC[C@H]1CN2CC[C@H]1C[C@H]2[C@H](O)c1cc(-c2ccccc2C(F)(F)F)nc2ccc(OC)cc12.Cl` 0

----------
Test system: Plasmodium falciparum
assay_remarks: GSK_TCMDC: Inhibition of Plasmodium falciparum Dd2 in whole red blood cells, using parasite LDH activity as an index of growth. Test compounds present at 2uM
Type: functional
reported_metric: Inhibition (%)
Give the number; % is assumed, so skip it.

Some solved entries appear below for comparison.
O=C(/C=C/C=C/c1ccccc1)NC1CCC(CN2CCC(c3c[nH]c4ccccc34)CC2)CC1 (configuration not stated) : 66
Cl.O=C(/C=C/c1ccc(Cl)c(Cl)c1)NC1C2CCC1CC(CN1CCC(c3c[nH]c4ccccc34)CC1)C2 (configuration not stated) : 100
CCOc1ccc(CN(CCc2ccc3c(c2)OCO3)Cc2cc(OC)ccc2O)cc1.O=C(O)C(=O)O : 88
CCC1(C)CC(CCNCc2ccccc2O)(c2ccc(F)cc2)CCO1 (configuration not stated) : 32
CC(C)CNCc1ccc(-c2cccc(CN(C(=O)CCC3CCCC3)C3CCN(Cc4ccccc4)CC3)c2)cc1.O=C(O)C(F)(F)F : 92
Cc1cc(NC(=O)[C@@H](Nc2ccc(C#N)c3ccccc23)C2CCCCC2)ccc1F.O=C(O)C(F)(F)F : 83
O=C(/C=C/c1ccc(Cl)c(Cl)c1)NCCCCCN1C2CCC1CC(c1c[nH]c3ccccc13)C2 (configuration not stated) : 4
COc1ccc(F)cc1-c1csc(N(c2ccc(F)cc2)C2CCNCC2)n1.O=C(O)C(F)(F)F : 0
Cc1ccc(C2(O)CC3CCC(C2)N3C)cc1 (configuration not stated) : 16
COc1cc(NC(=O)c2nn(CCCN3CCC4(CC3)C(=O)NCN4c3ccccc3)cc2-c2ccc(Cl)c(Cl)c2)cc(OC)c1OC : 75

Query compound follows.
Can you share its Inhibition? I mean this compound: `CC(C)CNCc1cccc(-c2ccc(CN(C(=O)NC3CCCCC3)C3CCN(Cc4ccccc4)CC3)cc2)c1.O=C(O)C(F)(F)F` 51

----------
System: Plasmodium falciparum
assay_remarks: GSK_TCMDC: Inhibition of Plasmodium falciparum 3D7 in whole red blood cells, using parasite LDH activity as an index of growth. Test compounds present at 2uM
Format: functional
Listed below: Inhibition values for each entry.
Give the number; % is assumed, so skip it.

Some solved entries appear below for comparison.
COC(=O)/C=C/c1ccc(CC(C)NCC(O)c2cccc(Br)c2)cc1 (stereo not drawn) : 97
N#Cc1c(Cl)cccc1Oc1ccc(S(=O)(=O)N2CCC(CN3CCC(c4c[nH]c5ccccc45)CC3)CC2)cc1 : 100
CCCCCC(C)C(C)c1cc(O)c2c(c1)OC(C)(C)c1cnccc1-2.Cl (stereo not drawn) : 94
CN(c1cc(NC(=O)c2cccs2)ccn1)C1CCN(Cc2cccc(C#N)c2)CC1.O=C(O)C(F)(F)F : 90
O=C1Nc2cccc3c2C1(CCCCN1CC=C(c2c[nH]c4ncccc24)CC1)CCC3 (stereo not drawn) : 92
CCCCCOc1ccc(CC(C)NCC(O)c2cccc(Cl)c2)cc1 (stereo not drawn) : 100
O=C(O)C(F)(F)F.O=C(c1cccs1)N(Cc1cccc(-c2ccc(CNC3CCCC3)cc2)c1)C1CCN(Cc2ccccc2)CC1 : 90
C[C@@H]1C[C@@H]([C@H](O)CC2CC(=O)NC(=O)C2)C(=O)[C@@H](C)C1 [CYCLOHEXIMIDE] : 96
Br.CC[C@H]1CN2CC[C@H]1C[C@H]2[C@H](O)c1ccnc2ccc(C#N)cc12 : 100
Cl.Fc1ccc2[nH]cc(CCN3CCC(CNCc4ccccc4)CC3)c2c1 : 100

Under Plasmodium falciparum: Inhibition value of `Cc1cc(O)cc2c(C3CCN(CC4CCN(C(=O)/C=C/c5ccc(Cl)c(Cl)c5)CC4)CC3)c[nH]c12` ? 100

Under Plasmodium falciparum: Inhibition value of `CC[C@H]1CN2CC[C@@H]1C[C@H]2[C@H](O)c1cc(N2CCSCC2)nc2ccc(OC)cc12` ? 99

----------
System: Plasmodium falciparum
assay_remarks: GSK_TCMDC: Inhibition of Plasmodium falciparum Dd2 in whole red blood cells, using parasite LDH activity as an index of growth. Test compounds present at 2uM
Type: functional
reported_metric: Inhibition (%)
Give the number; % is assumed, so skip it.

CC(Cc1ccc(OCc2ccccc2)cc1)NCC(O)c1cccc(Cl)c1 (centres undefined) : 99
CNCCN(C)C(=O)Oc1c(Cl)c(C)nc(C)c1-c1ccc(Oc2ccc(OC(F)(F)F)cc2)cc1.Cl : 96

Query compound follows.
Can you share its Inhibition? I mean this compound: `O=C(NCc1ccc(S(=O)(=O)N2CCC(CN3CCC(c4c[nH]c5ccccc45)CC3)CC2)s1)c1ccccc1` 21

----------
System: Plasmodium falciparum
assay_remarks: GSK_TCMDC: Inhibition of Plasmodium falciparum 3D7 in whole red blood cells, using parasite LDH activity as an index of growth. Test compounds present at 2uM
Type: functional
reported_metric: Inhibition (%)
Give the number; % is assumed, so skip it.

Some solved entries appear below for comparison.
CC[C@H]1CN2CC[C@@H]1C[C@H]2[C@H](O)c1cc(-c2cc(Cl)cc(Cl)c2)nc2ccc(OC)cc12 : 99
Cl.c1ccc2c(NCCCCCCCCCNc3c4ccccc4nc4ccccc34)c3ccccc3nc2c1 : 100
Cc1[nH]c2ccc([N+](=O)[O-])cc2c1C1=CCN(C)CC1 : 86

Query molecule follows.
Can you share its Inhibition? I mean this molecule: `Cc1[nH]c2c(C)cc(NS(C)(=O)=O)cc2c1C1CCN(CC2CCN(C(=O)/C=C/c3ccc(Cl)c(Cl)c3)CC2)CC1` 100

----------
Listed below: Inhibition values for each entry.
Tested on: Plasmodium falciparum
assay_remarks: GSK_TCMDC: Inhibition of Plasmodium falciparum 3D7 in whole red blood cells, using parasite LDH activity as an index of growth. Test compounds present at 2uM
Format: functional
Give the number; % is assumed, so skip it.

Can you share its Inhibition? I mean this molecule: `CCCCn1c(C)c(C(=O)OCC)c2cc(OC(C)=O)c(Br)cc21` 98

Can you share its Inhibition? I mean this molecule: `C/C=C1\CN2CC[C@H]1C[C@H]2[C@H](O)c1ccnc2ccc(O)cc12` 98

Can you share its Inhibition? I mean this molecule: COC(=O)c1ccc(CC(C)NCC(O)c2cccc(C(F)(F)F)c2)c(Cl)c1 (stereo not given) 99

Can you share its Inhibition? I mean this molecule: CC(Cc1ccc(Oc2ccccc2)cc1)NCC(O)c1cccc(C(F)(F)F)c1 (stereo not given) 98

Can you share its Inhibition? I mean this molecule: `CC(=O)Nc1ccc(CN2CCC(N(C)c3ccc(NC(=O)c4cccc(C)c4)cc3)CC2)cc1.O=C(O)C(F)(F)F` 91

----------
Listed below: Inhibition values for each entry.
Tested on: Plasmodium falciparum
assay_remarks: GSK_TCMDC: Inhibition of Plasmodium falciparum 3D7 in whole red blood cells, using parasite LDH activity as an index of growth. Test compounds present at 2uM
Assay type: functional
Give the number; % is assumed, so skip it.

Some solved entries appear below for comparison.
O=P(O)(O)Oc1c(Br)cc(Br)cc1-c1cc(Br)cc(Br)c1O : 97
Br.COC(=O)c1ccc(CC(C)NCC(O)c2cccc(OC(F)(F)F)c2)cc1 (centres undefined) : 98
CN1C(=O)OC[C@@H]1Cc1ccc2[nH]cc(C3=CCN(Cc4ccccc4)CC3)c2c1 : 86
COC(C(=O)OCCC1CCCN1C)(c1ccccc1)C1CCCCC1 (centres undefined) : 100

Under Plasmodium falciparum: Inhibition value of `CC1=CC(=O)[C@@H](O)[C@]2(C)[C@H]3[C@@]4(O)OC[C@@]35[C@@H](C[C@@H]12)OC(=O)C[C@H]5[C@@H](C)[C@H]4O` ? 99

Under Plasmodium falciparum: Inhibition value of `O=C(/C=C/c1ccc(Cl)c(Cl)c1)Nc1cccc(CN2CCC(c3c[nH]c4ccccc34)CC2)c1` ? 99

Under Plasmodium falciparum: Inhibition value of `CC(=O)N(Cc1ccccc1-c1cccc(CNCc2ccc3c(c2)OCO3)c1)C1CCN(Cc2ccccc2)CC1.O=C(O)C(F)(F)F` ? 85

Under Plasmodium falciparum: Inhibition value of `CCCCCCCn1c(=O)c(C(=O)Nc2c(C)cccc2C)c(O)c2ccccc21` ? 90

Under Plasmodium falciparum: Inhibition value of CC(=O)C1(c2ccccc2)CCN(CCC2(c3ccc(Cl)c(Cl)c3)CN(C(=O)c3cccc(Cl)c3)CCO2)CC1 (centres undefined) ? 90

Each recorded value in this set is attributed to ChEMBL document CHEMBL1157539.
